# TEST TARGET: UniProtKB P18031
# EXPERIMENT: Recombinant PTP1B assay (pNPP substrate)
# CONDITION DETAILS: calculated as Ki = IC50/(S/Km + 1), S 1 mM, Km 0.7 mM, competitive type assumed from docking; read-out: Ki ± SD
Item-by-item account of pKi
pKi (log units): -log10 of the concentration in mol/L.

Example entries begin here.
O.O.O=C1CNCC(=O)[O][V](=[O])[O]1.c1ccc(-c2ccccn2)nc1 [Compound 3, [VO(ida)(bipy)]·2 H2O]; 6.65
COc1ccnc(-c2cc(OC)ccn2)c1.O.O.O=C([O-])c1cccc(C(=O)[O-])n1.[O]=[V+2]; 7.13
O.O=C1[O][V-](=[O])(=[O])[O]C(=O)c2cccc1n2.c1ccc(-c2cccc[nH+]2)cc1 [Compound 5, [VOO(dipic)](2-phepyH)·H2O]; 7.18
O.O=C([O-])c1cccc(C(=O)[O-])n1.[O]=[V+2].c1ccc(-c2ccccn2)nc1 [Compound 2, [VO(dipic)(bipy)]·H2O]; 6.76

// moving on: another record for pKi
Reported pKi for O.O.O.O.O=C([O-])c1cccc(C(=O)[O-])n1.[O]=[V+2] [Compound 1, [VO(dipic)(H2O)2]·2 H2O] was 6.59

====

IC50 overview
# TEST TARGET: PTP1B phosphatase (Homo sapiens, UniProt P18031)
# Construct: purchased Cayman Chemical, Ann Arbor, MI, USA
# EXPERIMENT: Recombinant PTP1B assay (pNPP substrate)
# Assay type: biochemical
# CONDITION DETAILS: recombinant PTP1B 10 nM, 1 mM pNPP, 37 °C, HEPES pH 7.4
Give the number; nM is assumed, so skip it.

O.O.O.O.O=C([O-])c1cccc(C(=O)[O-])n1.[O]=[V+2] [Compound 1, [VO(dipic)(H2O)2]·2 H2O]; 628
O.O=C([O-])c1cccc(C(=O)[O-])n1.[O]=[V+2].c1ccc(-c2ccccn2)nc1 [Compound 2, [VO(dipic)(bipy)]·H2O]; 426
COc1ccnc(-c2cc(OC)ccn2)c1.O.O.O=C([O-])c1cccc(C(=O)[O-])n1.[O]=[V+2]; 185

IC50 in this record for O.O=C1[O][V-](=[O])(=[O])[O]C(=O)c2cccc1n2.c1ccc(-c2cccc[nH+]2)cc1 [Compound 5, [VOO(dipic)](2-phepyH)·H2O] : 167

Quick note, IC50 for O.O.O=C1CNCC(=O)[O][V](=[O])[O]1.c1ccc(-c2ccccn2)nc1 [Compound 3, [VO(ida)(bipy)]·2 H2O] landed at 543
